Reported melting point values are given for each entry in this list.
attribute_measured: melting point

smiles_data	attribute_measured	result
COc1ccc(F)c(N)c1	melting point	27 to 28 °C
Cc1nc2c3cccc(Cl)c3ccn2c1CC(N)=O	melting point	284 to 286 °C
Brc1ccc(C=Cc2csc3ccccc23)s1	melting point	71.5 to 73 °C
O=C(O)COCCOCCN1C(=O)c2ccccc2C1=O	melting point	88 to 90 °C

====

// reported melting point per item

molecule	melting point
COCOc1cc(/C=C/S(=O)(=O)NC(=O)OC(C)(C)C)n(Cc2ccc(Cl)cc2Cl)n1	139 to 140 °C
Cc1ccccc1[C@H]1CC[C@@H](c2ccccc2)N1C(=O)CNC(=O)Nc1cccc(CC(=O)O)c1 (racemic)	133 °C
CCOC(=O)C1=Cc2cc(-c3ccc(OC(F)(F)F)cc3)ccc2OCC1	59 to 63 °C
